Listed here: items and their measured HUMAN MICROSOMAL STABILITY (% REMAINING AFTER 30 MINUTES).
Experiment: In vitro human microsomal stability assay
Type: in vitro ADME
Details: human, microsomes, 0.5 h, 0.5 μM, pH 7.4
measure: HUMAN MICROSOMAL STABILITY (% REMAINING AFTER 30 MINUTES) (%)

INSERT INTO results (molecule, result_modifier, reported) VALUES
  ('OC(C1CCCc2cccnc21)C1(c2ccc(Cl)c(Cl)c2)CCC1 (single isomer, unassigned) [Example 181]', '<', 0.01),
  ('OC(c1ccccn1)C1(c2ccc(Cl)c(Cl)c2)CCCO1 (single isomer, unassigned) [Example 98]', '=', 7.6),
  ('CC(c1ccccc1Cl)C1(C(O)c2ccccn2)CCC1 (stereo not shown)', '=', 0.08),
  ('OC1CC(c2ccc(C(F)(F)F)cc2)([C@@H](O)c2ccccn2)C1 (mixture of isomers)', '>', 85);

---

Experiment: In vitro human microsomal stability assay
Assay type: in vitro ADME
Details: human, microsomes, 0.5 h, 0.5 μM, pH 7.4
measure: HUMAN MICROSOMAL STABILITY (% REMAINING AFTER 30 MINUTES)

INSERT INTO results (molecule, reported) VALUES
  ('OC(c1ccccn1)C1(c2cccc(F)c2)CCCO1 (single isomer, unassigned) [Example 101]', '40%'),
  ('OC(c1ccccn1)C1(c2cccc(F)c2)CCCO1 (single isomer, unassigned) [Example 100]', '26%'),
  ('OC(c1ccccn1)C1(c2ccc(C(F)(F)F)cc2)CCCO1 (single isomer, unassigned) [Example 88]', '38%'),
  ('OC(c1ccccn1)C1(c2cccc(C(F)(F)F)n2)CCC1 (stereo not drawn)', '19%'),
  ('OC(c1ccccn1)C1(c2ccc(C(F)(F)F)c(F)c2)CCC1 (stereo not drawn)', '21%'),
  ('OC(c1ccccn1)C1(C2CCCCC2)CCC1 (stereo not drawn)', '0.02%'),
  ('OC(c1ccccn1)C1(c2ccccn2)CCC1 (stereo not drawn)', '>85%'),
  ('OC1CC(c2ccc(C(F)(F)F)cc2)([C@H](O)c2ccccn2)C1 (mixture of isomers)', '>85%'),
  ('CC1(O)CC(c2ccc(OC(F)(F)F)cc2)(C(O)c2ccccn2)C1 (single isomer, unassigned) [Example 134]', '78%'),
  ('OC(c1ccccn1)C1(C2CCOCC2)CCC1 (stereo not drawn)', '57%'),
  ('OC(C1CCCc2cccnc21)C1(c2ccc(C(F)(F)F)cc2)CCC1 (single isomer, unassigned) [Example 184]', '0.46%'),
  ('OC(CC1(c2cccc(OC(F)(F)F)c2)CCC1)c1ccccn1 (stereo not drawn)', '11%'),
  ('CC(c1ccc(F)cc1)C1(C(O)c2ccccn2)CCC1 (stereo not drawn)', '11%'),
  ('OC(C1CCCc2cccnc21)C1(c2ccccc2OC(F)(F)F)CCC1 (stereo not drawn) [Example 191]', '<0.01%'),
  ('OC1CC(c2ccc(F)c(Cl)c2)([C@H](O)c2ccccn2)C1 (stereo partly drawn)', '72%'),
  ('OC(C1CCCc2cccnc21)C1(c2ccc(OC(F)(F)F)cc2)CCC1 (single isomer, unassigned) [Example 178]', '9.2%'),
  ('CC(C)(C)OC(=O)N1CCC(C2(C(O)c3ccccn3)CCC2)C1 (stereo not drawn)', '43%'),
  ('O=C1CC(c2ccc(C(F)(F)F)cc2)([C@H](O)c2ccccn2)C1 (single isomer, unassigned)', '71%'),
  ('O[C@H](c1ncccn1)C1(c2ccc(C(F)(F)F)cc2)CCC1', '54%'),
  ('O=C1CC(c2ccc(C(F)(F)F)cc2)(C(O)c2ccccn2)C1 (stereo not drawn)', '>85%'),
  ('OC1CC(c2ccc(C(F)(F)F)cc2)(C(O)c2ccccn2)C1 (stereo not drawn)', '73%'),
  ('CC(C)(C)OC(=O)N1CCC(C2(C(O)c3ccccn3)CCC2)CC1 (stereo not drawn)', '22%'),
  ('O[C@H](c1ccccn1)C1(c2ccc(Cl)c(Cl)c2)CCC1', '6.3%'),
  ('OC(c1ccccn1)C1(c2ccc(C(F)(F)F)cc2)CCCO1 (single isomer, unassigned) [Example 89]', '70%'),
  ('O[C@@H](c1ccccn1)C1(c2cc(C(F)(F)F)ccn2)CCC1', '28%'),
  ('Nc1cccnc1C(O)C1(c2ccc(OC(F)(F)F)cc2)CCC1 (stereo not drawn)', '41%'),
  ('OC(c1ccccn1)C1(c2cncc(C(F)(F)F)c2)CCC1 (stereo not drawn)', '8.0%'),
  ('OC(c1ccccn1)C1(C2CCOc3ccccc32)CCC1 (stereo not drawn)', '16%'),
  ('OC(C1CCc2cccnc21)C1(c2ccc(C(F)(F)F)cc2)CCC1 (stereo not drawn) [Example 174]', '26%'),
  ('OC(c1ccccn1)C1(C2CCCc3ccccc32)CCC1 (stereo not drawn)', '0.42%'),
  ('OC1CC(c2ccc(Cl)c(Cl)c2)(C(O)c2ccccn2)C1 (single isomer, unassigned) [Example 119]', '>85%'),
  ('OC(c1ccccn1)C1(c2ccc(Oc3ccccc3)cc2)CCC1 (stereo not drawn)', '20%'),
  ('OC1CC(c2cc(C(F)(F)F)ccn2)(C(O)c2ccccn2)C1 (stereo not drawn) [Example 282]', '>85%'),
  ('OC(c1ccccn1)C1(C2CCOC2)CCC1 (stereo not drawn)', '>85%'),
  ('CN(C)N=C1CC(c2ccc(OC(F)(F)F)cc2)([C@H](O)c2ccccn2)C1 (stereo partly drawn)', '64%'),
  ('OC(c1ccccn1)C1(c2ccc(OC(F)(F)F)cc2)CCOCC1 (stereo not drawn)', '58%');

---

Experiment: In vitro human microsomal stability assay
Format: in vitro ADME
Conditions: human, microsomes, 0.5 h, 0.5 μM, pH 7.4
Each record is given 1.0 if its reported HUMAN MICROSOMAL STABILITY (% REMAINING AFTER 30 MINUTES) is strictly below 50%. Records at or above 50% are given 0.0.

INSERT INTO results (compound, category_label) VALUES
  ('O[C@@H](c1ccccn1)C1(c2ccc(OC(F)(F)F)cc2)CC(F)(F)C1', 1.0),
  ('CON=C1CC(c2ccc(OC(F)(F)F)cc2)([C@H](O)c2ccccn2)C1 (some centres unmarked)', 0.0),
  ('OC(C1CCc2cccnc21)C1(c2ccc(C(F)(F)F)cc2)CCC1 (centres unmarked) [Example 173]', 1.0),
  ('OC1CC(c2cccc(OC(F)(F)F)c2)(C(O)c2ccccn2)C1 (single isomer, unassigned) [Example 273]', 1.0),
  ('O=C1CC(c2ccc(C(F)(F)F)cc2)([C@@H](O)c2ccccn2)C1 (single isomer, unassigned)', 0.0),
  ('OC1CC(c2cncc(C(F)(F)F)c2)(C(O)c2ccccn2)C1 (centres unmarked) [Example 303]', 0.0),
  ('OC(c1ccccn1)C1(C2=COCCC2)CCC1 (single isomer, unassigned)', 1.0),
  ('O[C@H](c1ccccn1)C1(c2ccc(C(F)(F)F)cc2)CCC1', 1.0),
  ('Cc1ccc(CC2(C(O)c3ccccn3)CCC2)cc1 (centres unmarked)', 1.0),
  ('OC(C1CCc2cccnc21)C1(c2cccc(OC(F)(F)F)c2)CCC1 (centres unmarked) [Example 189]', 1.0),
  ('CN[C@@H]1CCC[C@H]1[C@@H](O)C1(c2ccc(Cl)c(Cl)c2)CCC1', 0.0),
  ('CC(C)(C)OC(=O)N1CCC(c2ccc(C(F)(F)F)cc2)(C(O)c2ccccn2)CC1 (centres unmarked)', 1.0),
  ('OC(c1ccccn1)C1(c2ccccc2OC(F)(F)F)CCNCC1 (centres unmarked)', 0.0),
  ('OC(c1ccccn1)C1(c2ccc(C(F)(F)F)cn2)CC(F)(F)C1 (centres unmarked)', 0.0),
  ('OC(C1CCCc2cccnc21)C1(c2ccc(F)c(F)c2)CCC1 (single isomer, unassigned) [Example 170]', 1.0),
  ('O=C1CC(c2cncc(C(F)(F)F)c2)(C(O)c2ccccn2)C1 (centres unmarked)', 0.0),
  ('OC(C1CCc2cccnc21)C1(c2ccc(Cl)c(Cl)c2)CCC1 (centres unmarked) [Example 167]', 1.0),
  ('N[C@H]1CCC[C@@H]1[C@H](O)C1(c2ccc(Cl)cc2)CCC1', 0.0),
  ('O=C1CC(c2cccc(C(F)(F)F)c2)([C@@H](O)c2ccccn2)C1 (single isomer, unassigned)', 0.0),
  ('OC1CC(c2cncc(C(F)(F)F)c2)(C(O)c2ccccn2)C1 (centres unmarked) [Example 304]', 0.0),
  ('O[C@H](c1ccccn1)[C@]1(c2cccc(C(F)(F)F)c2)C[C@H](O)C1', 0.0),
  ('N[C@@H]1CCC[C@@H]1[C@@H](O)C1(c2ccc(OC(F)(F)F)cc2)CCC1', 0.0),
  ('OC(c1ccccn1)C1(c2nc3ccc(Cl)cc3s2)CCC1 (centres unmarked)', 1.0),
  ('OC(c1ccccn1)C1(c2nc3ccc(F)cc3s2)CCC1 (centres unmarked)', 1.0),
  ('OC(c1ccccn1)C1(c2ccc(C(F)(F)F)cc2)CC2(C1)OCCO2 (centres unmarked)', 0.0),
  ('O[C@H](c1ccccn1)C1(c2ccc(Cl)c(Cl)c2)CC1', 1.0),
  ('OC(C1CCCc2cccnc21)C1(c2cccc(C(F)(F)F)c2)CCC1 (single isomer, unassigned) [Example 180]', 1.0),
  ('OC1CC(c2ccnc(C(F)(F)F)c2)(C(O)c2ccccn2)C1 (centres unmarked) [Example 305]', 0.0),
  ('OC(c1ccccn1)C1(c2ccc(OC(F)(F)F)cc2)CCNCC1 (centres unmarked)', 0.0),
  ('OC(c1ccccn1)C1(C2(O)CCOC2)CCC1 (centres unmarked)', 0.0),
  ('OC(c1ccccn1)C1(c2ccc(Cl)c(Cl)c2)CC(F)(F)C1 (centres unmarked)', 1.0),
  ('OC(c1ccccn1)C1(c2ccccc2F)CCCO1 (centres unmarked)', 0.0),
  ('OC(C1CCCc2cccnc21)C1(c2ccccc2OC(F)(F)F)CCC1 (centres unmarked) [Example 192]', 1.0);
